test system: Streptomyces alboniger; experiment: Antimicrobial activity against Streptomyces alboniger IFO 12738 assessed as inhibition of aerial mycelial growth at 4 ug/disk after 5 days by paper disk method; assay type: functional
Activity calls are given as the source filed them. The calls are words filed in the database; no cut-off is given here.
PROPERTY LABEL: diameter of the inhibition zone (DIZ)

INSERT INTO measurements (compound, assay_result) VALUES
  ('N=C(N)NCC(O)CC(O)(C(=O)O)[C@@H]1O[C@@H](N2C=C(CO)C(N)=NC2O)C=C[C@@H]1NC(=O)[C@@H](N)CO (stereo partly drawn)', 'inactive'),
  ('CN(C)[C@@H]1C(O)=C(C(N)=O)C(=O)[C@@]2(O)C(O)=C3C(=O)c4c(O)cccc4[C@@](C)(O)[C@H]3[C@H](O)[C@@H]12', 'inactive'),
  ('NC[C@H]1O[C@H](O[C@H]2[C@H](O)[C@@H](O[C@H]3O[C@H](CO)[C@@H](O)[C@H](N)[C@H]3O)[C@H](N)C[C@@H]2N)[C@H](O)[C@@H](O)[C@@H]1O', 'inactive');
